# Tested on: HT29 colon
# experimental-details: NCI-60 one-dose screen, 48 h (100 = growth as untreated, 0 = no growth, -100 = all killed)
# setup-conditions: 10 µM unless noted
The panel holds about 83,000 compounds, 20% with a hit somewhere; the sample as a whole holds those more often.
measure-name: growth (%)
Enter your answer as a number in %; do not include the unit.

Exam item: Give the measured growth of `Cn1cc(C2=C(c3cn(C4CCN(Cc5ccccn5)CC4)c4ccccc34)C(=O)NC2=O)c2ccccc21` .
Marked response: 14.3

Exam item: Give the measured growth of `ClC1=C(Cl)C(Cl)(C2(Cl)C(Cl)=C(Cl)C(Cl)=C2Cl)C(Cl)=C1Cl` .
Marked response: -64.2

Exam item: Give the measured growth of O=C1C2C(C(=O)[N]1[Hg][c]1cccs1)C1(Cl)C(Cl)=C(Cl)C2(Cl)C1(Cl)Cl (stereo unspecified) .
Marked response: 8.75

Exam item: Give the measured growth of COc1cccc(C=NC(Cc2cnc[nH]2)C(=O)O)c1O (stereo unspecified) .
Marked response: 100

Exam item: Give the measured growth of `COC(=O)CCc1c[nH]c2ccc(N(CCCl)CCCl)cc12` .
Marked response: 59.3

Exam item: Give the measured growth of `C=CCCCCCCCCC(=O)[O-].C=CCCCCCCCCC(=O)[O-].[Zn+2]` .
Marked response: 105

Exam item: Give the measured growth of CN1CCC(c2c[nH]c3ccccc23)C1 (stereo unspecified) .
Marked response: 100

Exam item: Give the measured growth of `CCOP(=O)(Cc1ccc(C#N)cc1)OCC` .
Marked response: 92.2

Exam item: Give the measured growth of O=C1CC2(CC3(Cl)C(Cl)=C(Cl)C2(Cl)C3(Cl)Cl)C(=O)O1 (stereo unspecified) .
Marked response: 113

Exam item: Give the measured growth of CCC(CC)CC1(C)CC2(C)CCOC2OO1 (stereo unspecified) .
Marked response: 100

Exam item: Give the measured growth of `COc1ccc(S(=O)(=O)N(Cc2ccc3c(c2)C=CC(C)(C)O3)c2ccccc2)cc1OC` .
Marked response: 72.9

Exam item: Give the measured growth of `CC(=O)OC[C@]1(C)C=C2C(=O)[C@](C)(O)C3(CC3)C(C)=C2[C@H]1OC(=O)N(C)CCN(C)C(=O)OC(C)(C)C` .
Marked response: 0.176

Exam item: Give the measured growth of CC12CCC(O)CC1=CCC1C2CCC2(C)C(O)CCC12 (stereo unspecified) .
Marked response: 101

* * *

Property: growth; scope: individual compounds
# Tested on: NCI-H460 lung
# experimental-details: NCI-60 one-dose screen, 48 h (100 = growth as untreated, 0 = no growth, -100 = all killed)
# setup-conditions: 10 µM unless noted
Compounds without any hit were thinned out: in the full panel of roughly 83,000, 20% have a hit.
Enter your answer as a number in %; do not include the unit.

Please review the following examples before continuing.
[
  {
    "entry-smiles": "CN(C)C(=O)Oc1ccccc1",
    "growth / %": 97.5
  },
  {
    "entry-smiles": "C=CCn1cc(C=C2C(=O)N(C)C(=O)N(C)C2=O)c2ccccc21",
    "growth / %": 56
  },
  {
    "entry-smiles": "Nc1ccc(OCCNS(=O)(=O)c2cccc(S(=O)(=O)F)c2)c(Cl)c1",
    "growth / %": 102
  },
  {
    "entry-smiles": "Clc1cc(N2CC2)nc(N2CC2)n1",
    "growth / %": 23.6
  },
  {
    "entry-smiles": "CC(C)(N)Cc1ccccc1",
    "growth / %": 111
  },
  {
    "entry-smiles": "O=C(Nc1ccc(Cl)cc1)Nc1nccs1",
    "growth / %": 21
  }
]

Exam item: Give the measured growth of `CCCCC1(CCC)C(=O)NC(=S)NC1=O` .
Marked response: 108

* * *

Property: growth; scope: individual molecules
# System: MDA-MB-231 breast
# experimental-details: NCI-60 one-dose screen, 48 h (100 = growth as untreated, 0 = no growth, -100 = all killed)
# setup-conditions: 10 µM unless noted
About 83,000 compounds went through this panel and 20% of them were active in at least one assay; those are over-represented in the sample as a whole.
Enter your answer as a number in %; do not include the unit.

Please review the following examples before continuing.
[
  {
    "molecule": "Cn1cc(-c2csc(-c3cn(CCCCN4CCCCC4)c4ccc(F)cc34)n2)c2cccnc21",
    "measurement-units": "%",
    "readout-value": 71.4
  },
  {
    "molecule": "O=c1[nH]c2ccc([N+](=O)[O-])cc2c(=O)o1",
    "measurement-units": "%",
    "readout-value": 107
  },
  {
    "molecule": "COc1cc(NCCCN=C(N)N)c2ncccc2c1",
    "measurement-units": "%",
    "readout-value": 64.8
  },
  {
    "molecule": "CC12CCC3C(C=CC4=C(N)C(=O)CCC43C)C1CCC2=O (stereo not drawn)",
    "measurement-units": "%",
    "readout-value": 101
  }
]

Exam item: Lookup: growth / MDA-MB-231 breast / `CC[C@H](C)[C@H](NC(=O)c1nccn1C)C(=O)N(C)[C@H](C[C@@H](OC(C)=O)c1nc(C(=O)N[C@@H](Cc2ccccc2)C[C@H](C)C(=O)OC)cs1)C(C)C`
Marked response: -5.75

Exam item: Lookup: growth / MDA-MB-231 breast / `CCCCCCC(=O)NC1=C(N2CC2)C(=O)C(NC(=O)CCCCCC)=C(N2CC2)C1=O`
Marked response: 24.8

Exam item: Lookup: growth / MDA-MB-231 breast / `COc1cc2c(cc1OCCCCCn1c(-c3ccco3)nc3ccccc31)N=C[C@@H]1CCCN1C2=O`
Marked response: 9.17

Exam item: Lookup: growth / MDA-MB-231 breast / CN1CC(CNC(=O)OCc2ccccc2)CC2c3cccc4c3c(cn4C)CC21 (stereo not drawn)
Marked response: 27.3

Exam item: Lookup: growth / MDA-MB-231 breast / `CCCCCCCOC(C(=O)OCCN(CC)CC)(c1ccccc1)c1ccccc1`
Marked response: 82.5

Exam item: Lookup: growth / MDA-MB-231 breast / Cc1ccc(C(Cc2ccccc2)NCCO)cc1 (stereo not drawn)
Marked response: 103

Exam item: Lookup: growth / MDA-MB-231 breast / `CCC(=O)Nc1ccc(Cl)c(Cl)c1`
Marked response: 92.2

Exam item: Lookup: growth / MDA-MB-231 breast / COc1cc(C=C2c3ccccc3C(=O)c3ccccc32)ccc1OCCCCOc1cc2c(cc1OC)C(=O)N1CCCC1C=N2 (stereo not drawn)
Marked response: -23.7

Exam item: Lookup: growth / MDA-MB-231 breast / `C=COC(=O)CCN1CC1`
Marked response: 103

Exam item: Lookup: growth / MDA-MB-231 breast / CC(C)OC(=O)[C@H](C)NP(=O)(Oc1ccccc1)C1CCCN(O)C1=O (stereo partly drawn)
Marked response: 92.3

Exam item: Lookup: growth / MDA-MB-231 breast / `CCCCCCCCCCCCCCCCCCOc1ccccc1COP(=O)(O)OOCC[N+](C)(C)C`
Marked response: -40.7

* * *

# Tested on: MDA-MB-435 melanoma
# experimental-details: NCI-60 one-dose screen, 48 h (100 = growth as untreated, 0 = no growth, -100 = all killed)
# setup-conditions: 10 µM unless noted
Compounds without any hit were thinned out: in the full panel of roughly 83,000, 20% have a hit. Calls of active or inactive are those of the source. How the source made its calls: active means growth percent below 10; inactive means the rest.
measure-name: growth

Please review the following examples before continuing.
[
  {
    "molecule": "O=C1C(=Cc2cn(Cc3ccccc3)c3ccccc23)C(=O)N(Cc2ccccc2)C(=O)N1Cc1ccccc1",
    "growth": "108% (inactive)"
  },
  {
    "molecule": "CC(=O)OCc1cc[c]([Hg][Cl])o1",
    "growth": "29.4% (inactive)"
  },
  {
    "molecule": "Cc1ccc2c(C(C[N+](=O)[O-])c3cccs3)c(-c3ccccc3)[nH]c2c1 (stereo not drawn)",
    "growth": "-31.1% (active)"
  }
]

Exam item: Give the measured growth of `COC(=O)[C@@]1(C)CC[C@]2(C)CC[C@]3(C)C4=CC=C5C(=CC(=O)C(O)=C5C)[C@]4(C)CC[C@@]3(C)[C@@H]2C1` .
Marked response: -90.8% (active)

Exam item: Give the measured growth of `CC[S][Hg][Cl]` .
Marked response: 98.7% (inactive)

* * *

# Tested on: A549/ATCC NSCLC
# experimental-details: NCI-60 one-dose screen, 48 h (100 = growth as untreated, 0 = no growth, -100 = all killed)
# setup-conditions: 10 µM unless noted
Compounds without any hit were thinned out: in the full panel of roughly 83,000, 20% have a hit.
Field 'label' (enum: Fulfilled / Not fulfilled). Set to Fulfilled when growth is strictly under 90%; else Not fulfilled.

[
  {
    "molecule": "COc1ccc(N(CC(=O)NCCC[Te]c2ccccc2)C(=O)CCSC2=C(C)C(=O)c3ccccc3C2=O)cc1",
    "discrete-label": "Fulfilled"
  },
  {
    "molecule": "Cc1cc(N(CCCl)CCCl)ccc1C=Nc1cccnc1",
    "discrete-label": "Fulfilled"
  },
  {
    "molecule": "CCCCC1(CCC)C(=O)NC(=S)NC1=O",
    "discrete-label": "Not fulfilled"
  },
  {
    "molecule": "O=C1C(Cl)=C(N2CCOCC2)C(=O)c2ccccc21",
    "discrete-label": "Not fulfilled"
  },
  {
    "molecule": "COC1OC(CO)C(O)C(O)[CH]1[Hg][O]C(C)=O (centres undefined)",
    "discrete-label": "Not fulfilled"
  },
  {
    "molecule": "C[N+]12CN3CN(CN(C3)C1)C2",
    "discrete-label": "Not fulfilled"
  },
  {
    "molecule": "O=C(CC1(O)C(=O)N(Cc2ccccc2)c2ccc(Cl)cc21)c1ccc(C(=O)NCC2CCC3(CC2)OOC2(CCCCC2)OO3)cc1 (centres undefined)",
    "discrete-label": "Fulfilled"
  }
]

Exam item: In plain terms, does `C/C(=C\c1ccn(-c2ccc(N)cc2C(F)(F)F)n1)[C@@H]1C[C@@H]2O[C@]2(C)CCC[C@H](C)[C@H](O)[C@@H](C)C(=O)C(C)(C)[C@@H](O)CC(=O)O1` come in under 90% for growth?
Marked response: Fulfilled
